target: T1, EBV gp350 stably expressed on CHO cells (Epstein-Barr virus, UniProt P03200); assay: Epitope mapping by competitive cell binding assay with biotinylated mAbs; details: unlabeled mAb 67.5 μg/ml; biotinylated m72A1 1 μg/ml
T1 construct: stably co-transfected with full-length pCAGGS-gp350/220 and pCI-puro vector; expressed in transfected cells; host or cells: CHO cells
T1 sequence (P03200 whole entry): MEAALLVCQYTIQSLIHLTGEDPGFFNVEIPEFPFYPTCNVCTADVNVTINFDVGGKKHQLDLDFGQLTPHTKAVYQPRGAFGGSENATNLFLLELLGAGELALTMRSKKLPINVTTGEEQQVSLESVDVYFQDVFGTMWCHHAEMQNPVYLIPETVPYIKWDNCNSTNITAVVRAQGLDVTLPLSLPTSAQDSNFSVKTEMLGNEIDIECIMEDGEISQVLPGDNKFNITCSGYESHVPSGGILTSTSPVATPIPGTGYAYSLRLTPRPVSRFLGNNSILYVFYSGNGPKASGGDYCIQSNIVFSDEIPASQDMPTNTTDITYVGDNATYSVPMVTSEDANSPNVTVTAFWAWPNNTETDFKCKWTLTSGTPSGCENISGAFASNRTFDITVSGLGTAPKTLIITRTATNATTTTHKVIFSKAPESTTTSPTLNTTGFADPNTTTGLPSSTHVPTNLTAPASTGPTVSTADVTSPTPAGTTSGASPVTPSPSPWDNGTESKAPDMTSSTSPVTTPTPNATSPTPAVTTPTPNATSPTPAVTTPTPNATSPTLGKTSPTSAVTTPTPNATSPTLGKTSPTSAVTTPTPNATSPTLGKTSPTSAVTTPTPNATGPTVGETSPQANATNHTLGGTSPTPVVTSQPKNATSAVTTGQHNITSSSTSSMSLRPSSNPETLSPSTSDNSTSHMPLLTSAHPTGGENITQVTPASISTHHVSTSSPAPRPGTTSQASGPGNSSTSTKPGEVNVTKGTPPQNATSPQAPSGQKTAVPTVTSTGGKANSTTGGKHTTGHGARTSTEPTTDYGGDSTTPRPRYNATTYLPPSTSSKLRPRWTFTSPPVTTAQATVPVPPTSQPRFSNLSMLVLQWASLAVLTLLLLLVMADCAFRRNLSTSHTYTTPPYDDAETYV
property_name: % inhibition of biotinylated nAbs (biotinylated m72A1)

For the molecule HB10: murine anti-EBV gp350 mAb, IgG1 κ; SEQ ID NO: 118 / 119; non-nAb (protein, heavy chain mAb HB10; light chain mAb HB10, murine anti-EBV gp350 mAb, IgG1 κ; non-nAb) chain 1: LSLPVSLGDQASISCRSSQSIVHSNGNTYLEWYLQKAGQSPKLLIYKVSNRFSGVPDRFGGSGSGTDFTLKISRVEAEDLGVYYCFQGSHVPYTFGGGTKLEIKRADAAPTV chain 2: SSLSASLGDRVTISCRASQDIGNYLNWYQQKPDGTVKLLIYYTSRLHSGVPSRFSGSGSGTDYSLTISNLEEEDIATYFCQQGNTLPPTFGGGTKLEIKRADAAPTV , give its measured % inhibition of biotinylated nAbs (biotinylated m72A1) value.
13%

For the molecule h72A1: humanized 72A1 IgG1; heavy and light chain SEQ ID NOs: 180 and 181 (antibody, V domains shown) VH: EVQLVESGGGLVQPGGSLRLSCAASGSSFTDYTMNWMRQSPGKGLEWIGLINPYNGGTRYADSVKGRATLSLDKSKNTAYLQMNSLRAEDTAIYYCAGGLRRVNWFAYWGQGTLVTVSS VL: DAQLTQSPILLSASVGDRVTITCRSSTGAVTTSNYANWVQERTNGSFRGLIGGTNNRVPGVPSRFSGSLSGDDATLTISSLQPEDEADYFCVLWHSNHWVFGAGTKVEIKR , give its measured % inhibition of biotinylated nAbs (biotinylated m72A1) value.
89%

For the molecule m72A1: EBV anti-gp350 neutralizing mouse antibody purified from HB168 hybridoma (ATCC); SEQ ID NO: 100 / 101 (antibody, V domains shown, heavy chain mAb 72A1; light chain mAb 72A1) VH: PELVKPGTSMKISCKASGSSFTDYTMNWMKQSHGKNLEWIGLINPYNGGTRYNQKFKGKATLTLDKSSSTAYMEVLSLTSEDSAVYYCAGGLRRVNWFAYWGQGTLVSVSAAKTTPPSVYPLAPGSAAQTNSMVTLG VL: QAVLTQESALTTSPGETVTLTCRSSTGAVTTSNYANWVQEKPDHLFTGLIGGTNNRVPGVPARFSGSLIGDKAALTITGAQTEDEAIYFCVLWHSNHWVFGGGTKLTVL , give its measured % inhibition of biotinylated nAbs (biotinylated m72A1) value.
97%

For the molecule HB22: murine anti-EBV gp350 mAb, IgG1 κ; SEQ ID NO: 130 / 131; non-nAb (antibody, V domains shown, heavy chain mAb HB22; light chain mAb HB22, murine anti-EBV gp350 mAb, IgG1 κ; non-nAb) VH: PGLVAPSQSLSITCTVSGFSLTNYGIHWVRQPPGKGLEWLVVIWSDGSTIYNSALKSRLSISKDNSKSQVFLKMNSLQTDDTAMYYCARNYYGNSYPAWFAYWGQGTLVTVSAAKTTPPSVYPLAPGSAAQTNSMVTLG VL: LSLPVSLGDQASISCRSSQSIVHSNGNTYLEWYLQKPGQSPKLLIYKVSNRFSGVPDRFSGSGSGTDFTLRISRVEAEDLGVYYCFQGSHVPWTFGGGTKLEIKRADAAPTV , give its measured % inhibition of biotinylated nAbs (biotinylated m72A1) value.
9%
